Exercise: for every item that follows, state its recorded koff.
- assay-target: T1, hPDGFRb.mmh (human, UniProt P09619 33-531)
- T1 construct: Soluble monomeric construct; also called soluble human PDGFR-beta.mmh
- T1 sequence (P09619 other isoform, or with tags, fused parts or gaps): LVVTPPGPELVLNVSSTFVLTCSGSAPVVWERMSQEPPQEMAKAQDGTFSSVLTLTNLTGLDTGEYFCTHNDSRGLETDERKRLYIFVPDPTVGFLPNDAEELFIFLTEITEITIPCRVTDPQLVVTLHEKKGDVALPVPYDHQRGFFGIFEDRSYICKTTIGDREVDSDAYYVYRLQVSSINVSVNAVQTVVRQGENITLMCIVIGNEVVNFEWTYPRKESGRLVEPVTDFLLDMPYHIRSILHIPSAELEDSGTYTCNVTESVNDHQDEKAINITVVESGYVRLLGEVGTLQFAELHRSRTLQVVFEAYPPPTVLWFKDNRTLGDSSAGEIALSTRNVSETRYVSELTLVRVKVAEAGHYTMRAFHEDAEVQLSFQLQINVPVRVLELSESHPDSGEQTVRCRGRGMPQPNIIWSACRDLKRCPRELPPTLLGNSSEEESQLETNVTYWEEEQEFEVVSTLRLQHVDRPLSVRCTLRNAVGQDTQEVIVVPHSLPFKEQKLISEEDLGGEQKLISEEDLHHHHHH
- method-summary: SPR, mAb captured, 37 C

[
  {
    "binder": "H1M3374N (antibody, V domains shown, mouse Fc format; also called H2M3374N) VH: QLQLQESGPGLVKPSETLSLTCTVSGGSITSSSYYWGWIRQPPGKGLEWIGSIYYRGSTNYNPSLKSRVTISVDSSKNQFYLKVSSVTAVDTAVYYCARQNGAARPSWFDPWGQGTLVTVSS VL: EIVLTQSPDTISLSPGERATLSCRASQSISSIYLAWYQQKPGQAPRLLIYGASSRVTGIPDRFSVSGSGTDFTLTISRLEPEDFAVYYCQHYGISPFTFGPGTKVDIR",
    "recorded-result": "0.00079 s⁻¹"
  },
  {
    "binder": "H4H3103S (antibody, human IgG4, V domains shown, human IgG4 Fc (H4H prefix)) VH: EVQLLQSGGGLVQPGGSLRLSCAASGFTFSHYWMSWVRQGPGKGLEWVATIKKDGSESYYVDSVRGRFTISRDNAKNSLYLQMNSLRTEDTAVYYCARDIVTPNVGYYFGMDVWGQGTTVTVSS VL: DIQMTQSPSTLSASVGDRVTITCRASQSISSWLSWYQQKPGKAPKLLIYMASTLESGVPSRFSGSGSGTDFTLTITSLQPDDFATYYCQQSNSYSRTFGHGTKLEIK",
    "recorded-result": "0.00497 s⁻¹"
  },
  {
    "binder": "H2M3373N (antibody, V domains shown, mouse Fc (H2M prefix; isotype not spelled out)) VH: EVQLRDSGGGLVQPGGSLRLSCVASGFTFSSYWMSWVRQAPGKGLEWVVNINRDGSEKYYVDSVKGRFIISRDNTKNSLYLQMESLRAEDTAVYYCARDPPYHLYGMDVWGQGTTVTVSS VL: DIQMTQSPSSLSASVGDRVTITCRTSQGIRVDLAWYQQKPGKAPERLIYAASSLQSGVPSRFSGGGSGTEFTLTVSSLQPEDFATYYCLQHHNFPYTFGQGTKLEIK",
    "recorded-result": "0.0122 s⁻¹"
  },
  {
    "binder": "H4H3094P (antibody, human IgG4, V domains shown, also called H4H3394P) VH: EVQLVESGGGLVQPGGSLRLSCAASGFTFSSYWMSWVRQAPGKGLEWVANMNQDGSETHYVDSVKGRLSISRDNAKKSLFLHMNSLRAEDTAVYFCARDLVPPRQDDYYYYFGMDVWGHGTTVTVSS VL: DIQMTQSPSTLSASVGDRVTITCRASQSISDWLAWYQQKPGKAPKLLIFKASTLESGVPSRFSGSGSGTEFTLTISSLQPDDFATYYCQQYNSYSRTFGQGTKVEIK",
    "recorded-result": "0.00147 s⁻¹"
  }
]

Respectfully, I request koff for each entry included below.
1. H4H3374N (antibody, human IgG4, V domains shown, human IgG4 Fc (H4H prefix)) VH: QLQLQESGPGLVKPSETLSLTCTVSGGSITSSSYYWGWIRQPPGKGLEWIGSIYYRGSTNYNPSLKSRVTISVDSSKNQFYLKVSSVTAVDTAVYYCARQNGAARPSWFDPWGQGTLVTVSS VL: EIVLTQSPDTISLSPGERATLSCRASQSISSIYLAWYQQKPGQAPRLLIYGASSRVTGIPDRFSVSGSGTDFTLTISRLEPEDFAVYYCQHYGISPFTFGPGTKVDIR
2. H4H3095S (antibody, human IgG4, V domains shown, human IgG4 Fc (H4H prefix)) VH: EVQLVESGGGLVQPGGSLRLSCGASGFTFSSYWMTWVRQAPGKGLEWVGNINQDGSEKYSVDSVKGRFTISRDNAKNSLYLQMNRVRAEDTAVYYCSRDLVPPRQGDNYYYFGMDVWGLGTTVTVSS VL: DIQMTQSPSTLSASVGDRVIITCRASQNINNWLAWYQQQPGKAPKLLIYEASSLESGVPSRFSGSGSGTEFTLTIGSLQPDDFATYYCQHYNSYSRTFGQGTKVDIK
3. H4H3104S (antibody, human IgG4, V domains shown, human IgG4 Fc (H4H prefix)) VH: QVQLVESGGGLVQPGGSLRLSCAAAGFTFSHYWMSWVRQAPGKGLEWVATIKKDGSERYYVDSVKGRFTISRDNARNSMYLEMNSLRTEDTAIYYCARDIVTPNTDYYFGMDVWGQGTTVTVSS VL: DIQLTQSPSTLSASVGDRVTITCRASQSFNNWLSWYQQKPGKAPKLLIYMASTLESGVPSRFSGSGSGTDFTLTINSLQPDDFATYYCQQSNSYSRTFGHGTKVEIK
4. H4H3105S (antibody, human IgG4, V domains shown, human IgG4 Fc (H4H prefix)) VH: QVQLVESGGSLVQPGGSLRLACTASGFTFSSYWMSWVRQAPGKGLEWVANIQQDENEKYYVDSVKGRFSISRDNAKKSLYLQMNSLRVEDTAVYFCARDLVPPRQGDYYHYFGMDVWGQGTTVTVSS VL: DIQLTQSPSTLSASVGDRVTITCRASQSISDWLAWYQQKPGKAPNLLIYKASTLESGVPSRFSGSGSGTEFTLTISSLQPDDFATYYCQQYNSYSRTFGQGTKVEIK
5. H4H3096S (antibody, human IgG4, V domains shown, human IgG4 Fc (H4H prefix)) VH: EVQLVQSGGSLVQPGGSLRLSCTASGFTFSSYWMSWVRQAPGKGLEWVANIQQDESEKYYVDSVKGRFSISRDNAKKSLYLQMNSLRAEDTAVYFCARDLVPPRQGDYYHYFGMDVWGQGTLVTVSS VL: AIRMTQSPSTLSASVGDRVTITCRASQSISDWLAWYQQKPGKAPNLLIYKASSLESGVPSRFSGSGSGTEFTLTISGLQPDDFATYYCQQYNSYSRTFGQGTKLEIKR

Out:
1: 0.00126 s⁻¹; 2: 0.00624 s⁻¹; 3: 0.0028 s⁻¹; 4: 0.00354 s⁻¹; 5: 0.00624 s⁻¹
